Can you tell me TP for the items I'm about to list?
species: Rattus norvegicus; experiment: Open TG-GATES - Regimen: Single; type: toxicity, organism-based, Sprague-Dawley; parameters: regimen Single, gender Male, age 6 weeks; settings: in vivo, po, 0 mg/kg, 6 h, tissue Plasma, route gavage, dose level Control
Expressed in g/dL, but write only the number.

Challenge: Need TP of CN(C)CCC=C1c2ccccc2CCc2ccccc21 [AMITRIPTYLINE] , thanks.
Response given: 5.4

Challenge: Need TP of C[C@H](CS)C(=O)N1CCC[C@H]1C(=O)O [CAPTOPRIL] , thanks.
Response given: 5.3

Challenge: Need TP of CCc1cc(C(N)=S)ccn1 [ETHIONAMIDE] , thanks.
Response given: 5.4

Challenge: Need TP of O=C(O)c1cn(C2CC2)c2cc(N3CCNCC3)c(F)cc2c1=O [CIPROFLOXACIN] , thanks.
Response given: 5.5

Challenge: Need TP of Cn1c(=O)c2[nH]cnc2n(C)c1=O.O [THEOPHYLLINE] , thanks.
Response given: 5.4

Challenge: Need TP of CSc1ccc2c(c1)N(CCC1CCCCN1C)c1ccccc1S2 (configuration not stated) [THIORIDAZINE] , thanks.
Response given: 5.5

Challenge: Need TP of CC(=O)Oc1ccccc1C(=O)O [ASPIRIN] , thanks.
Response given: 5.5

Challenge: Need TP of NC(=O)N1c2ccccc2C=Cc2ccccc21 [CARBAMAZEPINE] , thanks.
Response given: 5.5

Challenge: Need TP of O=C(O)c1cc(/N=N/c2ccc(S(=O)(=O)Nc3ccccn3)cc2)ccc1O [SULFASALAZINE] , thanks.
Response given: 5.4

Challenge: Need TP of COc1ccc(Cc2nccc3cc(OC)c(OC)cc23)cc1OC [PAPAVERINE] , thanks.
Response given: 5.3

Challenge: Need TP of NC(=O)N/N=C/c1ccc([N+](=O)[O-])o1 [NITROFURAZONE] , thanks.
Response given: 5.2

Challenge: Need TP of Clc1ccccc1CN1CCc2sccc2C1 [TICLOPIDINE] , thanks.
Response given: 5.3
